These data points were gathered from patent US20090181929A1.

# Target Under Test: CETP (Homo sapiens, UniProt P11597)
# Construct: Human plasma (50 μL), assay buffer (35 μL) and test compound; tissue New Drug Development Research Center, Inc
# Sequence (P11597 18-493): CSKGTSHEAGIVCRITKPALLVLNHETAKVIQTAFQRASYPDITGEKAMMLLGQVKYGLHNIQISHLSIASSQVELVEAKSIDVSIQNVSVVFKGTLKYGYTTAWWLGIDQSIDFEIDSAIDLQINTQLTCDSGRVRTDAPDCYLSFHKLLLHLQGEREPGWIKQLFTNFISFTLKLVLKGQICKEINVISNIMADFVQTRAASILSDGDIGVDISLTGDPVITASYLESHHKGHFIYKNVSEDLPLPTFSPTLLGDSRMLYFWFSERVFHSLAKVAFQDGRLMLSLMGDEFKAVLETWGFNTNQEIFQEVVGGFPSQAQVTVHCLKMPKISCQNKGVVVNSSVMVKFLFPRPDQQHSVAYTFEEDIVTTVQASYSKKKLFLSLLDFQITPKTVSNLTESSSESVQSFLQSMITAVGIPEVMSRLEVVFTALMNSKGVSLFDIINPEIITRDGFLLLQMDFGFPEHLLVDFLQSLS
# Experiment: in vitro CETP activity in human plasma (BODIPY-CE donor microemulsion, fluorescence)
Observable: IC50 (µM)

CCCCN(C)c1cnc(N(CC)CC2CCCC2)c(CN(Cc2cc(C(F)(F)F)cc(C(F)(F)F)c2)c2nnn(C)n2)c1	0.72

I: CCN(CC1CCCC1)c1nc(C)c(Br)cc1CN(Cc1cc(C(F)(F)F)cc(C(F)(F)F)c1)c1nnn(C)n1
II: CCN(CC1CCCC1)c1ncc([N+](=O)[O-])cc1CN(Cc1cc(C(F)(F)F)cc(C(F)(F)F)c1)c1nnn(C)n1
III: CCN(CC1CCCC1)c1ncc(N(C)C(C)=O)cc1CN(Cc1cc(C(F)(F)F)cc(C(F)(F)F)c1)c1nnn(C)n1
IV: CCN(CC1CCCC1)c1ncc(I)cc1CN(Cc1cc(C(F)(F)F)cc(C(F)(F)F)c1)c1nnn(C)n1
*Q* Order the records by IC50, with each subsequent value no larger than the one before. The reply should contain the labels ordered as requested.
*A* II, III, IV, I
(II: 0.63 µM, III: 0.37 µM, IV: 0.23 µM, I: 0.11 µM)

====

# Target Under Test: CETP (Homo sapiens, UniProt P11597)
# Construct: Human plasma (50 μL), assay buffer (35 μL) and test compound; tissue New Drug Development Research Center, Inc
# Sequence (P11597 18-493): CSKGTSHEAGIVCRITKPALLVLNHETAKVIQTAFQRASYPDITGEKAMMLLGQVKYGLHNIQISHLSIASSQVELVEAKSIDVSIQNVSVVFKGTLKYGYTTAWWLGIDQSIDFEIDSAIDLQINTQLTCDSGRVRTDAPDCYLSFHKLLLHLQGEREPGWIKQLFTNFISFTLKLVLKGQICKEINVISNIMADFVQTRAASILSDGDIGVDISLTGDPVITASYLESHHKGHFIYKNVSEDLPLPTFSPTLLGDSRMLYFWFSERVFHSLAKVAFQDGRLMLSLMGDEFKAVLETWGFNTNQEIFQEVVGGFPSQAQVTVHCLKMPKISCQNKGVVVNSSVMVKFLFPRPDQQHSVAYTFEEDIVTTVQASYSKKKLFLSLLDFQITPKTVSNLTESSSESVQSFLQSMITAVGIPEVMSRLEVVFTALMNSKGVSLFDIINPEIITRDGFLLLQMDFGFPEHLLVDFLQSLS
# Experiment: in vitro CETP activity in human plasma (BODIPY-CE donor microemulsion, fluorescence)
Observable: IC50 (nM)

CCN(CC1CCCC1)c1ncc(C)cc1CN(Cc1cc(C(F)(F)F)cc(C(F)(F)F)c1)c1nnn(C)n1	300

a: CCN(CC1CCCC1)c1ncc(N2CCC2)cc1CN(Cc1cc(C(F)(F)F)cc(C(F)(F)F)c1)c1nnn(C)n1
b: CCN(CC1CCCC1)c1ncc(SC)cc1CN(Cc1cc(C(F)(F)F)cc(C(F)(F)F)c1)c1nnn(C)n1
*Q* So which one has the bigger IC50 here, a or b ? Label of pick, please.
*A* a
(a: 260 nM, b: 140 nM)
